Recorded selectivity ratio for the following molecules
# MEASUREMENT_DESCRIPTION: Selectivity index, ratio of IC50 for hFB-hTERT6 cells to IC50 for human HCT-116 cells
# Format: toxicity
# DETAILS: hFB-hTERT6 cells versus HCT-116 cells, read-out: Ratio IC50

Known results for molecules:
STRUCTURE_STRING	selectivity ratio
CN(C)CCNc1c2c(c(NCCN(C)C)c3n[se]nc13)C(=O)c1ccccc1C2=O	2
NCCNc1c2c(c(NCCN)c3sccc13)C(=O)c1ccccc1C2=O	0.8
CN(C)CCNc1c2c(c(NCCN(C)C)c3nsnc13)C(=O)c1ccccc1C2=O	1.7
N=C(N)NCCNc1c2c(c(NCCNC(=N)N)c3sccc13)C(=O)c1ccccc1C2=O	0.4
N=C(N)NCCNc1c2c(c(NCCNC(=N)N)c3nsnc13)C(=O)c1ccccc1C2=O	> 5.2

Please report the recorded selectivity ratio for NCCNc1c2c(c(NCCN)c3occc13)C(=O)c1ccccc1C2=O . 0.9

Please report the recorded selectivity ratio for Cl.Cl.NCCNc1c2c(c(NCCN)c3n[se]nc13)C(=O)c1ccccc1C2=O . 6.5

Please report the recorded selectivity ratio for CN(C)CCNc1c2c(c(NCCN(C)C)c3[nH]nnc13)C(=O)c1ccccc1C2=O . > 6.4

Please report the recorded selectivity ratio for NCCNc1c2c(c(NCCN)c3nsnc13)C(=O)c1ccccc1C2=O . 4
